test system: GlcCer and Trx positive cancer cells; settings: read-out: inhibitory activity IC50 against several cancer cells
pIC50: −log10 of the molar value. Bridges are numbered along the chain shown (N, C = ends). Where no end group is shown, it is not given here.
endpoint.label: pIC50

In: Looking for the measured pIC50 of RTCENLADKYRGPCFSGCDTHCTTKENAVSGRCRDDFRCWCTKRC (disulfide 3-45, 14-33, 18-39, 22-41) [MsDef1] , can you help?
Out: 4.82 to 5.00
